The reader will find reported protein stability index values listed item by item below.
Test: protein stability index of a GFP-peptide fusion (yeast GPS) (PSI 1-4); higher = more stable; sorted into four equal gates, so the index is relative within each strain
Settings: san1∆

Here are 4 sequences together with their reported answers.
# residueString, protein stability index
records = [
    ("SKAQQKTAEQVAAERAA [RPL7A]", 2.74),
    ("IDESMPDTAIDSQMDEA [GRR1]", 2.85),
    ("VAALVSLTEKFSQTVAD [ECM29]", 1.8),
    ("PQTTQMFQSQSQLQPQP [YDL088C/ASM4]", 2.65),
]

# input Look up protein stability index: RRMAFKPFGSAKSDETK [YLR335W/NUP2]
# output 2.88

# input // repeat for LLKKATKPEVASDMSDE [CDC53] and report
# output 2.84

# input Same lookup for EIKDAETSCDNYHPMNI [SMC4] , please.
# output 3.15

# input Now give it for SNAAGADDAISMHLLKD [SRB8] too.
# output 3.07

# input Queued: NAIQTEVYGINEESTNE [SIR4]
# output 2.9

# input Would you mind doing SGHDDLVHDVVYDFYGR [YGL100W/SEH1] as well?
# output 2.39

====

Test: protein stability index of a GFP-peptide fusion (yeast GPS) (PSI 1-4); higher = more stable; sorted into four equal gates, so the index is relative within each strain
Conditions: doa10∆
Readings of protein stability index for the listed sequences
// keep it numeric: no unit symbol after the value

# residueString, protein stability index
data = [
    ("LNHVVSLIENKKAKLVL [RPL8B]", 2.46),
    ("IKGNGESDETTTDNNNS [RPT1]", 3.15),
    ("VLQEYRLTKQAFDWVLS [RPO21]", 2.59),
    ("GNPLSIGTLEEIIDDDH [RPT2]", 3.28),
    ("LRQLASYYSREQDALFI [RPN1]", 1.7),
    ("FLDSQRVWAEYATKRQE [PRP8]", 1.54),
    ("QTDADRVKDPQWLIMLG [RIP1]", 3.19),
    ("SQSLGVSNKFEKIFHYG [PUP3]", 3.47),
    ("NQIWNIALNLASKKFGK [SSN2]", 2.7),
    ("ERSSKRLAKKPSMKKIK [SIR3]", 3.18),
]

# input Value lookup for protein stability index; key = CKDDVQLQKILESLKPI [MTW1]
# output 3.11

# input Now the sequence DDVVVLTGEAEIEQPVT [FAS1]
# output 3.47

# input Next up: KNLISRINTLPQVQLPV [ECM29]
# output 2.85

# input Another sequence to check: THEDLPKEVDGLEVGPV [IRR1]
# output 3.21

# input Param item: NGQPLNQNFSLTFQPQQ [GRR1]
# output 3.09

====

Assay: protein stability index of a GFP-peptide fusion (yeast GPS) (PSI 1-4); higher = more stable; sorted into four equal gates, so the index is relative within each strain
Conditions: san1∆
Recorded protein stability index determines the group label, using bucket A: < 2; bucket B: ≥ 2 and < 3; bucket C: ≥ 3

# residueString, categoryLabel
records = [
    ("LGIKVAELTGDSRLSRK [BRR2]", "bucket B"),
]

# input Input GQSEASLLNLLNISPFT [RPP0] ; output its category
# output bucket B

# input Same question, KAKRAKTGSASTVKGSV [TAF14] this time
# output bucket B

# input Item: DDDKKPDDDKIVPLTEG [RPT1]
# output bucket C

# input // next record DDLERLKKIRAHRGIRH [RPS18A]
# output bucket A

# input Continue with SIIGNKNNNYTWEECVF [REC8]
# output bucket B

# input How about GDVSSGLFEKSTVSANH [BRN1] ?
# output bucket B

# input Check SNDLCSQIFDQLKDMQT [SRB8] too.
# output bucket B

====

Experiment: protein stability index of a GFP-peptide fusion (yeast GPS) (PSI 1-4); higher = more stable; sorted into four equal gates, so the index is relative within each strain
Conditions: doa10∆
Decision: protein stability index >= 3 yields y, all other cases yield n.

# residueString, categoryLabel
data = [
    ("LPPNWKYESATASALVN [RPS13]", "n"),
]

# input Please check the record IKEKFDEFIKTHEDLPK [IRR1] and state if its protein stability index is at or above 3.
# output n

====

Experiment: protein stability index of a GFP-peptide fusion (yeast GPS) (PSI 1-4); higher = more stable; sorted into four equal gates, so the index is relative within each strain
Conditions: doa10∆
Decision: protein stability index >= 3 yields rule met, all other cases yield rule not met.

Example entries begin here.
# residueString, categoryLabel
records = [
    ("LENKENGLLNEISRLKT [SMC2]", "rule met"),
    ("MDETQTRAKIGGLNDPR [RPO21]", "rule not met"),
    ("EAASITRKSLNNAVRFS [ECM29]", "rule not met"),
    ("MAQENSMERKVQGAAPW [MCD1]", "rule met"),
    ("VAKLANWFLEVYASGNP [YML031W/NDC1]", "rule not met"),
]

Here is another sequence to look at.
# input Given the entry GILLETISVPQIRDVME [RRP6] , answer whether its protein stability index meets or surpasses 3.
# output rule not met

====

Assay: protein stability index of a GFP-peptide fusion (yeast GPS) (PSI 1-4); higher = more stable; sorted into four equal gates, so the index is relative within each strain
Settings: doa10∆
resultType: protein stability index
Lab note: record the figure alone, no unit after it.

# residueString, protein stability index
measured = [
    ("WRFHTPQKYVLHPQLHE [SIN4]", 2.17),
    ("NISNNLQKALTVKTNDE [RPN8]", 3.02),
    ("NPFTSATSSTNANAGLF [YOR098C/NUP1]", 2.72),
]

# input Given the sequence KYYLEESNVNDSDMLTK [NUT1] , what is its reported protein stability index?
# output 3.13

# input Same question, NANTVFSERAAMFAALQ [SWI1] this time
# output 2.31

# input Can you handle DDRYGYQLYTSNPSGNY [PRE9] next?
# output 2.88

# input Could you do the same for TEKDDNKTNNEDLFDDY [NUT1] , please?
# output 2.92

# input Entry STTTSVNGSTTAGVGST [SIN4] please
# output 3.06

====

Assay: protein stability index of a GFP-peptide fusion (yeast GPS) (PSI 1-4); higher = more stable; sorted into four equal gates, so the index is relative within each strain
Conditions: pdr5∆
resultType: protein stability index
Reply briefly: the number, and no unit.

# residueString, protein stability index
records = [
    ("EWQDIIHQREQELQIKR [CSE2]", 3.5),
    ("SSFGSESLTFNEFQLQW [SWI1]", 2.84),
    ("SLLKTKLKQQSSTDIPS [RRI1]", 2.4),
    ("DTVIIFDTDWNPHQDLQ [SNF2]", 3.1),
    ("NTTKTADTKAPTFTFGS [YLR335W/NUP2]", 3.33),
    ("VFVGTIFAGAFVFQTVF [QCR9]", 1.4),
]

# input Field request: protein stability index | item: VLEDVYRCFAQLELRQL [RRI2]
# output 2.61

# input How about this sequence: LKLNHIIANINSFTKGN [SNU114]
# output 2.15

# input And TAAQVANVELTPSNIRS [RPC34] ?
# output 2.82

====

Experiment: protein stability index of a GFP-peptide fusion (yeast GPS) (PSI 1-4); higher = more stable; sorted into four equal gates, so the index is relative within each strain
Conditions: pdr5∆
Listing of recorded protein stability index by entry.
No unit in the answer, only the number.

Here are 5 sequences together with their reported answers.
# residueString, resultType, dataValue
rows = [
    ("GFPSAPQPLFMEDPPST [YMR153W/NUP53]", "protein stability index", 3.08),
    ("ETVPDNVKTSVSQLYRI [RPO31]", "protein stability index", 3.16),
    ("FFYLRISKKLQFSYLSS [PCI8]", "protein stability index", 1.24),
    ("NKQPRNESFNRRISSMP [YAR002W/NUP60]", "protein stability index", 3.04),
    ("LIIDGFKSYATRTVITD [SMC2]", "protein stability index", 3.21),
]

# input Value lookup for protein stability index; key = AKTELNEVSLAIKKSSM [SMC2]
# output 3.12

# input What do you get for TKLNLHCVIEDDESEQI [RRI1] ?
# output 3.16

# input Next entry: GRRLNIRQYALATAHIY [SSN8]
# output 1.32

# input Input ARWPAKSVKFVQGLLQN [RPL17A]
# output 2.17

====

Assay: protein stability index of a GFP-peptide fusion (yeast GPS) (PSI 1-4); higher = more stable; sorted into four equal gates, so the index is relative within each strain
Settings: pdr5∆
Kind request: treat 3 as inclusive, so protein stability index at 3 or higher is True, anything lower is False.

Consider the following illustrative entries.
# residueString, categoryLabel
data = [
    ("PKFFLGEENRVRFIGDS [QCR2]", "True"),
    ("FVEEQNVYVLPKNLLKK [PRP8]", "False"),
    ("KGNLLEGKKVMAPYLPG [RPN2]", "False"),
    ("PNGEGSKTWETYEMRIH [RPS20]", "True"),
    ("PPQQTYHFPIFNKYADP [RPN4]", "False"),
]

# input Record PQRLTVLRLATNKGPLA [MCD1] ; criterion: protein stability index no lower than 3. Met?
# output False
